// provenance: the supplement of paper PMC4862054

Tested on: MDA-MB-231
experiment summary: normalised response (% of control), CellTox Green; higher = less cell death (100 = DMSO, 0 = benzethonium chloride kill control)
condition label: incubation time: 72 h
Known normalised response of a selection of compounds
value kind: normalised response (%)

{"compound": "CN(C)C/C=C/C(=O)Nc1cc2c(Nc3ccc(F)c(Cl)c3)ncnc2cc1O[C@H]1CCOC1 [Afatinib] (100 nM)", "value kind": "normalised response", "reported value": 113}
{"compound": "S=c1[nH]cnc2nc[nH]c12 [Mercaptopurine] (100 nM)", "value kind": "normalised response", "reported value": 80.6}
{"compound": "CN(C)C/C=C/C(=O)Nc1cc2c(Nc3ccc(F)c(Cl)c3)ncnc2cc1O[C@H]1CCOC1 [Afatinib] (10 nM)", "value kind": "normalised response", "reported value": 96.5}
{"compound": "Clc1ccc(C(c2ccccc2Cl)C(Cl)Cl)cc1 (centres undefined) [Mitotane] (1000 nM)", "value kind": "normalised response", "reported value": 95.2}
